The origin of these recorded values is the RNAGym collection of RNA variant scans (doi:10.1073/pnas.2313332121).

B1: TPR 5TU (parent)
chain: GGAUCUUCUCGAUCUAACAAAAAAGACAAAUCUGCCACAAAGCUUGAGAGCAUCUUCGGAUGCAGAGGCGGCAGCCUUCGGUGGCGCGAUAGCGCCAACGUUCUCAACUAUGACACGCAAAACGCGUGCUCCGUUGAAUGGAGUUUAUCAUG

Variants of: B1
Assay: polymerase ribozyme fitness, log enrichment relative to wild type (log ratio); higher = more active; in vitro selection for triplet polymerase activity
Variants at the floor of the assay were thinned out.
Parameter polymerase ribozyme fitness (log ratio): see the listing below.
Output spec: single numeric token, no unit.

[
  {
    "Mutation id": "A39U U82A A106G",
    "polymerase ribozyme fitness (log ratio)": -1.88
  }
]

I would be grateful if you could share the reported polymerase ribozyme fitness (log ratio) for A39G C96U C116U .
-1.75

What does the record list as polymerase ribozyme fitness (log ratio) for C51G G83A U134C ?
-3.62

Would you kindly share the measured polymerase ribozyme fitness (log ratio) for C93U A137G ?
-3.18

// polymerase ribozyme fitness (log ratio) lookup, key: U31G C54G
-1.02

Dear colleague, I am looking for the recorded polymerase ribozyme fitness (log ratio) of the following variant: A17G U134G
-1.76

Which polymerase ribozyme fitness (log ratio) value belongs to A52G U148G ?
-4.18

Give its polymerase ribozyme fitness (log ratio) value. Item: C5A A89G C95G C132U
-3.03

If you can, please state the reported polymerase ribozyme fitness (log ratio) value of A60G A66C G94U C108U C125U U139C .
-4

Which polymerase ribozyme fitness (log ratio) is reported for this variant? U55G A98G
-0.84

// polymerase ribozyme fitness (log ratio) lookup, key: C87A A119U A147C
-4.05

Fill in the blank: the reported polymerase ribozyme fitness (log ratio) of C5U A73G C85G is ____.
-0.907

Given the entry A40U A60G A89U U134C , report its measured polymerase ribozyme fitness (log ratio).
-0.16
